# Measured target: T1, human TL1A extracellular domain with N-terminal HIS and FLAG tag (human, UniProt O95150 72-251)
# T1 construct: whole entry named. ~70 kDa fraction purified by gel filtration
# T1 sequence: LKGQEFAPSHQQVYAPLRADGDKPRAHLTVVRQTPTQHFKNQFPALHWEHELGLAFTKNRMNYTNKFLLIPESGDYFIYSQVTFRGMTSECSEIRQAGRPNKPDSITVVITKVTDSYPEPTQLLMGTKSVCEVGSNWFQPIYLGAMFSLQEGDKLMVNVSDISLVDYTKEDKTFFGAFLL
# Protocol: SPR run 2; supernatant on Protein A; TL1A 10 ug/mL; timepoint 220
Parameter measured: TL1A Binding Level (Late) (RU)

INSERT INTO assay_data (binder, parameter_measured, value) VALUES
  ('320-228 (antibody, human IgG1, name in Kabat numbering, V domains shown, human IgG1, lambda) VH: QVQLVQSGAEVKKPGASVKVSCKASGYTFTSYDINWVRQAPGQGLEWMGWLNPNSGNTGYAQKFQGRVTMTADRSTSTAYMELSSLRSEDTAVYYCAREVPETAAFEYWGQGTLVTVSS VL: QSVLTQPPSVSGAPGQRVTISCTSSSHDIGAGLGVHWYQQLPGTAPKLLIEGYYNRPSGVPDRFSGSKSGTSASLTITGLLPEDEGDYYCQSYDGTLSALFGGGTKLTVLG', 'TL1A Binding Level (Late)', 235),
  ('320-214 (antibody, human IgG1, name in Kabat numbering, V domains shown, human IgG1, lambda) VH: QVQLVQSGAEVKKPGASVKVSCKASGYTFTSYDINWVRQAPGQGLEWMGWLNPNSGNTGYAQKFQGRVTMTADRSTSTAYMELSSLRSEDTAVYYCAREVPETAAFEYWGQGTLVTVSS VL: QSVLTQPPSVSGAPGQRVTISCTSLSSDIGAGLGVHWYQQLPGTAPKLLIEGYYNRPSGVPDRFSGSKSGTSASLTITGLLPEDEGDYYCQSYDGTLSALFGGGTKLTVLG', 'TL1A Binding Level (Late)', 196);
